System: carrageenan-induced edema
Experiment: Inhibitory effect on carrageenan-induced edema
Assay type: in vivo, Wistar male rats
Conditions: Rattus norvegicus, po, read-out: ED50 (50% effective dose), carrageenan-induced edema inhibition
PROPERTY NAME: ED50 (mg/kg)
State just the number; it will be interpreted in mg/kg.

// solved cases for ED50 follow
{"COMPOUND": "C/C=C/C(=O)OC(C)OC(=O)C(C)c1ccc(-c2ccccc2)c(F)c1 (stereo not drawn) [Compound 7]", "TEST RESULT": 0.9}
{"COMPOUND": "CCC(OC(C)=O)OC(=O)C(C)c1ccc(-c2ccccc2)c(F)c1 (stereo not drawn) [Compound 6]", "TEST RESULT": 1.5}
{"COMPOUND": "CC(=O)OC(C)OC(=O)C(C)c1ccc(-c2ccccc2)c(F)c1 (stereo not drawn) [Compound 1]", "TEST RESULT": 0.5}
{"COMPOUND": "CC(OC(=O)C(C)C)OC(=O)C(C)c1ccc(-c2ccccc2)c(F)c1 (stereo not drawn) [Compound 3]", "TEST RESULT": 1.5}
{"COMPOUND": "CCC(=O)OC(C)OC(=O)C(C)c1ccc(-c2ccccc2)c(F)c1 (stereo not drawn) [Compound 2]", "TEST RESULT": 0.7}

Okay, now this compound:
Input: Fill in: ED50 of CC(C(=O)OC1C(=O)OCC1(C)C)c1ccc(-c2ccccc2)c(F)c1 (stereo not drawn) [Compound 10] is ___
Output: 0.5
